# ASSAY_SYSTEM: human P2X7 (Homo sapiens (Human), UniProt Q99572)
# Sequence (Q99572 whole entry): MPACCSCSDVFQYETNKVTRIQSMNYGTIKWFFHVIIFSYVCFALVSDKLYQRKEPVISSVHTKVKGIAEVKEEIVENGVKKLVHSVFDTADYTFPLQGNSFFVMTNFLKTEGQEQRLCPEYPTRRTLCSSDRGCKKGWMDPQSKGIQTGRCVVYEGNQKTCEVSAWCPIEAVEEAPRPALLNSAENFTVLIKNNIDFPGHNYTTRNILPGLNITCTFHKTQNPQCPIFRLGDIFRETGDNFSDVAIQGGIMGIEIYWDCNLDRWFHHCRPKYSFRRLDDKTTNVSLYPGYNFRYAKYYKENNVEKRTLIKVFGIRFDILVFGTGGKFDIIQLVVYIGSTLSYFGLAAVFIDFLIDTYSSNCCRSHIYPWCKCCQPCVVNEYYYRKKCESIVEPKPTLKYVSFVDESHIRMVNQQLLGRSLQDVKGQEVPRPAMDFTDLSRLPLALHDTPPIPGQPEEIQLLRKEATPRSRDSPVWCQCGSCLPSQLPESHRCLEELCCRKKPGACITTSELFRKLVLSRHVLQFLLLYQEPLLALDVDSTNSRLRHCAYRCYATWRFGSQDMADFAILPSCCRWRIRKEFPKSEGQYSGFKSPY
# EXPERIMENTAL_DETAILS: Ca2+ flux (FLIPR) in 1321N1 cells expressing recombinant human P2X7
# Format: cell-based
# TEST_CONDITIONS: 1321N1 cells, recombinant human P2X7, 250 μM BzATP
Measured log10 of IC50, listed per entry.
MEASURED_PROPERTY: log10 of IC50 (log10 of the value in nM)

| MOLECULE | ASSAY_SYSTEM | log10 of IC50 |
| --- | --- | --- |
| CC1c2ncn(-c3ncccc3F)c2CCN1C(=O)c1cccc(C(F)(F)F)c1Cl (centres unmarked) | human P2X7 (Homo sapiens (Human), UniProt Q99572) | 1.95 |
| CCOC(=O)C1c2ncn(-c3ccccc3)c2CCN1C(=O)c1cccc(C(F)(F)F)c1Cl (centres unmarked) | human P2X7 (Homo sapiens (Human), UniProt Q99572) | 0.89 |
| O=C(c1cccc(C(F)(F)F)c1F)N1CCc2c(nnn2-c2ncccn2)C1 | human P2X7 (Homo sapiens (Human), UniProt Q99572) | 1.35 |
| CC(C)C1c2ncn(-c3cnccn3)c2CCN1C(=O)c1cccc(C(F)(F)F)c1Cl (centres unmarked) | human P2X7 (Homo sapiens (Human), UniProt Q99572) | 1.97 |
| O=C(c1cccc(C(F)(F)F)c1Cl)N1CCc2c(nnn2-c2ccn[nH]2)C1 | human P2X7 (Homo sapiens (Human), UniProt Q99572) | 1.60 |
| O=C(c1cccc(C(F)(F)F)c1Cl)N1CCc2c(ncn2-c2ccccc2)C1 | human P2X7 (Homo sapiens (Human), UniProt Q99572) | 1.08 |
| CC1c2nnn(-c3ncc[nH]3)c2CCN1C(=O)c1cccc(C(F)(F)F)c1Cl (centres unmarked) | human P2X7 (Homo sapiens (Human), UniProt Q99572) | 1.71 |
| O=C(c1ccc(Cl)cc1Cl)N1CCc2c(ncn2-c2ccc(F)cn2)C1 | human P2X7 (Homo sapiens (Human), UniProt Q99572) | 2.94 |

----------
# ASSAY_SYSTEM: human P2X7 (Homo sapiens (Human), UniProt Q99572)
# EXPERIMENTAL_DETAILS: Ca2+ flux (FLIPR) in 1321N1 cells expressing recombinant human P2X7;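 further: cells loaded with Calcium-4 dye, preincubated with test compound for 30 min, fluorescence change read 180 s after agonist addition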
# Assay type: cell-based
# TEST_CONDITIONS: 1321N1 cells, recombinant human P2X7, 250 μM BzATP

| COMPOUND | ASSAY_SYSTEM | IC50 |
| --- | --- | --- |
| C[C@H]1Cc2c(nnn2-c2ccn[nH]2)CN1C(=O)c1cccc(C(F)(F)F)c1F (single isomer, unassigned) | human P2X7 (Homo sapiens (Human), UniProt Q99572) | 2.7 nM |
| Cc1ccnc(-n2nnc3c2CCN(C(=O)c2cccc(OC(F)(F)F)c2)C3C)c1 (single isomer, unassigned) [Example 377] | human P2X7 (Homo sapiens (Human), UniProt Q99572) | 5510 nM |
| Cc1c(C(=O)N2Cc3nnn(-c4ccn[nH]4)c3C[C@H]2C)cccc1C(F)(F)F (single isomer, unassigned) | human P2X7 (Homo sapiens (Human), UniProt Q99572) | 6.5 nM |
| O=C(c1ccc(Cl)cc1F)N1CCc2c(nnn2-c2ncccn2)C1 | human P2X7 (Homo sapiens (Human), UniProt Q99572) | 255 nM |
| Cc1nccc(-n2nnc3c2CCN(C(=O)c2cccc(C(F)(F)F)c2F)C3C)n1 (stereo not drawn) | human P2X7 (Homo sapiens (Human), UniProt Q99572) | 16900 nM |
| O=C(c1cccc(C(F)(F)F)c1Cl)N1CCc2c(ncn2-c2ccccn2)C1 | human P2X7 (Homo sapiens (Human), UniProt Q99572) | 4.1 nM |
| CC1c2nnn(-c3ncc[nH]3)c2CCN1C(=O)c1cccc(Cl)c1Cl (stereo not drawn) | human P2X7 (Homo sapiens (Human), UniProt Q99572) | 1380 nM |
| O=C(c1cccc(C(F)(F)F)c1Cl)N1CCc2c(nnn2-c2ncc(F)cn2)C1 | human P2X7 (Homo sapiens (Human), UniProt Q99572) | 22.8 nM |
| C[C@@H]1c2nnn(-c3cccc(C(F)(F)F)n3)c2CCN1C(=O)c1cccc(C(F)(F)F)c1Cl (single isomer, unassigned) | human P2X7 (Homo sapiens (Human), UniProt Q99572) | 113 nM |
| Cc1cc(-n2nnc3c2CCN(C(=O)c2ccnc(C(F)(F)F)c2F)[C@@H]3C)ncc1F (single isomer, unassigned) | human P2X7 (Homo sapiens (Human), UniProt Q99572) | 22.6 nM |
| Cc1cc(-n2nnc3c2CCN(C(=O)c2cc(Cl)cc(C(F)(F)F)c2)[C@@H]3C)ncc1F (single isomer, unassigned) | human P2X7 (Homo sapiens (Human), UniProt Q99572) | > 10000 nM |
| Cc1c(C(=O)N2CCc3c(ncn3-c3ccc(F)cn3)C2)cccc1C(F)(F)F | human P2X7 (Homo sapiens (Human), UniProt Q99572) | 114 nM |
| Cc1cc(-n2nnc3c2CCN(C(=O)c2ccnc(C(F)(F)F)c2Cl)[C@H]3C)ncc1F (single isomer, unassigned) | human P2X7 (Homo sapiens (Human), UniProt Q99572) | 1630 nM |
| O=C(C1c2ncn(-c3ccccn3)c2CCN1C(=O)c1cccc(C(F)(F)F)c1Cl)N1CCC1 (stereo not drawn) | human P2X7 (Homo sapiens (Human), UniProt Q99572) | 348 nM |
| Cc1cc(-n2nnc3c2CCN(C(=O)c2ccnc(C(F)(F)F)c2Cl)[C@@H]3C)ncc1F (single isomer, unassigned) | human P2X7 (Homo sapiens (Human), UniProt Q99572) | 4.3 nM |

----------
Measured IC50, listed per entry.
# ASSAY_SYSTEM: rat P2X7 (Rattus norvegicus (Rat), UniProt Q64663)
# Sequence (Q64663 whole entry): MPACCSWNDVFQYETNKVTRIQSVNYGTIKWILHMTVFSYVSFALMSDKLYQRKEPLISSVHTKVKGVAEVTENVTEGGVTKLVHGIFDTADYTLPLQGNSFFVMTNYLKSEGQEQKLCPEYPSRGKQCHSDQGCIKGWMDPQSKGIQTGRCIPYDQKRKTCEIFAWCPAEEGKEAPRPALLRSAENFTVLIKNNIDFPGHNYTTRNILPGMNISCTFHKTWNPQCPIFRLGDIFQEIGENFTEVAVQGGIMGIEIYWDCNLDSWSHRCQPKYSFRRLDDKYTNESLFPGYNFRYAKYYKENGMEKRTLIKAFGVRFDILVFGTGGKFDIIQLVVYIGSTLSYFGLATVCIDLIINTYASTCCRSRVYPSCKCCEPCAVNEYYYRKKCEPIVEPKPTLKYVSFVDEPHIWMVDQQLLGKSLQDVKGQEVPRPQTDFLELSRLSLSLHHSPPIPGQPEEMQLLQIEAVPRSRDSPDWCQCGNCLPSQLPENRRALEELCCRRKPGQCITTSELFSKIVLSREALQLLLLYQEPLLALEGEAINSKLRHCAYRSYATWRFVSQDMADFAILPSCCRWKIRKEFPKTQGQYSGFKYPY
# EXPERIMENTAL_DETAILS: Ca2+ flux (FLIPR) in 1321N1 cells expressing recombinant rat P2X7
# Format: cell-based
# TEST_CONDITIONS: 1321N1 cells, recombinant rat P2X7, 250 μM BzATP
MEASURED_PROPERTY: IC50 (nM)

| COMPOUND | ASSAY_SYSTEM | NUMERIC_VALUE |
| --- | --- | --- |
| C[C@@H]1c2nnn(-c3ncccn3)c2CCN1C(=O)c1cccc(C(F)(F)F)c1F (single isomer, unassigned) [Example 271] | rat P2X7 (Rattus norvegicus (Rat), UniProt Q64663) | 20 |
| O=C(c1cccc(C(F)(F)F)c1Cl)N1CCc2c(ncn2-c2ccccc2)C1 [Example 2] | rat P2X7 (Rattus norvegicus (Rat), UniProt Q64663) | 2910 |
| O=C(c1cccc(C(F)(F)F)c1F)N1CCc2c(nnn2-c2ncccn2)C1 [Example 66] | rat P2X7 (Rattus norvegicus (Rat), UniProt Q64663) | 258 |
| C[C@@H]1c2nnn(-c3cccc(C(F)(F)F)n3)c2CCN1C(=O)c1cccc(C(F)(F)F)c1Cl (single isomer, unassigned) [Example 379] | rat P2X7 (Rattus norvegicus (Rat), UniProt Q64663) | 47.4 |
| Cc1ccnc(-n2nnc3c2CCN(C(=O)c2ccnc(C(F)(F)F)c2F)C3C)c1 (centres unmarked) [Example 355] | rat P2X7 (Rattus norvegicus (Rat), UniProt Q64663) | 394 |
| O=C(c1cccc(C(F)(F)F)c1Cl)N1CCc2c(nnn2-c2ccccc2)C1 [Example 61] | rat P2X7 (Rattus norvegicus (Rat), UniProt Q64663) | 1870 |
| Cc1cc(-n2nnc3c2CCN(C(=O)c2cccc(C(F)(F)F)c2Cl)[C@@H]3C)ncc1F (single isomer, unassigned) [Example 382] | rat P2X7 (Rattus norvegicus (Rat), UniProt Q64663) | 56.6 |
| CC1c2nnn(-c3ncc[nH]3)c2CCN1C(=O)c1cccc(C(F)(F)F)c1Cl (centres unmarked) [Example 393] | rat P2X7 (Rattus norvegicus (Rat), UniProt Q64663) | 11100 |

----------
# ASSAY_SYSTEM: rat P2X7 (Rattus norvegicus (Rat), UniProt Q64663)
# EXPERIMENTAL_DETAILS: Ca2+ flux (FLIPR) in 1321N1 cells expressing recombinant rat P2X7;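 further: Calcium-4 dye fluorescence change read 180 s after agonist addition, with cells preincubated 30 min with compound and dye in 96-well plates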
# Assay type: cell-based
# TEST_CONDITIONS: Ca2+ flux, 250 μM BzATP, rat P2X7 1321N1 cells
pIC50: −log10 of the molar value.
Measured pIC50, listed per entry.

| COMPOUND | BOUND_OPERATOR | pIC50 |
| --- | --- | --- |
| C[C@H]1Cc2c(nnn2-c2ncc(F)cn2)CN1C(=O)c1cccc(OC(F)(F)F)c1F [Example 427] | = | 5.08 |
| CC(C)n1ccc(-n2nnc3c2C[C@H](C)N(C(=O)c2cccc(C(F)(F)F)c2Cl)C3)n1 [Example 412] | = | 8.39 |
| CC1c2n[nH]c(-c3cnccn3)c2CCN1C(=O)c1cccc(C(F)(F)F)c1Cl (centres unmarked) [Example 438] | = | 6.32 |
| C[C@H]1Cc2c(nnn2-c2cc[nH]n2)CN1C(=O)c1ccnc(C(F)(F)F)c1F (single isomer, unassigned) [Example 424] | = | 8.34 |
| CC(C)n1ccc(-n2nnc3c2CCN(C(=O)c2cccc(C(F)(F)F)c2F)[C@H]3C)n1 [Example 415] | = | 7.89 |
| C[C@H]1c2nnn(-c3ccsc3)c2CCN1C(=O)c1cccc(C(F)(F)F)c1Cl [Example 421] | < | 5.00 |
| CCn1ccc(-n2nnc3c2CCN(C(=O)c2cccc(C(F)(F)F)c2Cl)[C@H]3C)n1 [Example 405] | = | 5.64 |
| C[C@H]1Cc2c(nnn2-c2cc[nH]n2)CN1C(=O)c1ccnc(C(F)(F)F)c1Cl (single isomer, unassigned) [Example 422] | = | 8.51 |
| CCn1ccc(-n2nnc3c2CCN(C(=O)c2ccnc(C(F)(F)F)c2F)[C@H]3C)n1 [Example 409] | = | 7.74 |
| CC1c2n[nH]c(-c3ccccn3)c2CCN1C(=O)c1cccc(C(F)(F)F)c1Cl (centres unmarked) [Example 432] | = | 7.48 |
| CC1c2n[nH]c(-c3ccnn3C)c2CCN1C(=O)c1cccc(C(F)(F)F)c1Cl (centres unmarked) [Example 437] | = | 4.84 |
| CC1c2n[nH]c(-c3ccc(F)cn3)c2CCN1C(=O)c1cccc(C(F)(F)F)c1Cl (centres unmarked) [Example 430] | = | 6.80 |
| C[C@H]1Cc2c(nnn2-c2ncc(F)cn2)CN1C(=O)c1cccc(C(F)(F)F)c1O [Example 426] | < | 5.00 |
| CC(C)n1ccc(-n2nnc3c2C[C@H](C)N(C(=O)c2cccc(C(F)(F)F)c2F)C3)n1 [Example 414] | = | 4.44 |
| CC(C)n1ccc(-n2nnc3c2C[C@H](C)N(C(=O)c2ccnc(C(F)(F)F)c2Cl)C3)n1 [Example 416] | = | 8.09 |
| C[C@H]1Cc2c(nnn2-c2ncc(O)cn2)CN1C(=O)c1cccc(C(F)(F)F)c1F [Example 428] | = | 7.67 |
| CC1c2n[nH]c(-c3ccc(F)cc3)c2CCN1C(=O)c1cccc(C(F)(F)F)c1Cl (centres unmarked) [Example 434] | = | 6.37 |
| CC1c2n[nH]c(-c3ccnn3C)c2CCN1C(=O)c1cccc(Cl)c1Cl (centres unmarked) [Example 436] | < | 5.00 |
| CC(C)n1ccc(-n2nnc3c2CCN(C(=O)c2ccnc(C(F)(F)F)c2F)[C@H]3C)n1 [Example 419] | = | 7.80 |
| CC1c2n[nH]c(-c3ncccn3)c2CCN1C(=O)c1cccc(Cl)c1Cl (centres unmarked) [Example 431] | = | 6.49 |

Origin of the recorded values: patent US10112937B2
